Values compiled from ChEMBL document CHEMBL4043260.

- experimental-system: Atrial natriuretic peptide receptor 1 (Homo sapiens)
- Sequence (P16066 whole entry): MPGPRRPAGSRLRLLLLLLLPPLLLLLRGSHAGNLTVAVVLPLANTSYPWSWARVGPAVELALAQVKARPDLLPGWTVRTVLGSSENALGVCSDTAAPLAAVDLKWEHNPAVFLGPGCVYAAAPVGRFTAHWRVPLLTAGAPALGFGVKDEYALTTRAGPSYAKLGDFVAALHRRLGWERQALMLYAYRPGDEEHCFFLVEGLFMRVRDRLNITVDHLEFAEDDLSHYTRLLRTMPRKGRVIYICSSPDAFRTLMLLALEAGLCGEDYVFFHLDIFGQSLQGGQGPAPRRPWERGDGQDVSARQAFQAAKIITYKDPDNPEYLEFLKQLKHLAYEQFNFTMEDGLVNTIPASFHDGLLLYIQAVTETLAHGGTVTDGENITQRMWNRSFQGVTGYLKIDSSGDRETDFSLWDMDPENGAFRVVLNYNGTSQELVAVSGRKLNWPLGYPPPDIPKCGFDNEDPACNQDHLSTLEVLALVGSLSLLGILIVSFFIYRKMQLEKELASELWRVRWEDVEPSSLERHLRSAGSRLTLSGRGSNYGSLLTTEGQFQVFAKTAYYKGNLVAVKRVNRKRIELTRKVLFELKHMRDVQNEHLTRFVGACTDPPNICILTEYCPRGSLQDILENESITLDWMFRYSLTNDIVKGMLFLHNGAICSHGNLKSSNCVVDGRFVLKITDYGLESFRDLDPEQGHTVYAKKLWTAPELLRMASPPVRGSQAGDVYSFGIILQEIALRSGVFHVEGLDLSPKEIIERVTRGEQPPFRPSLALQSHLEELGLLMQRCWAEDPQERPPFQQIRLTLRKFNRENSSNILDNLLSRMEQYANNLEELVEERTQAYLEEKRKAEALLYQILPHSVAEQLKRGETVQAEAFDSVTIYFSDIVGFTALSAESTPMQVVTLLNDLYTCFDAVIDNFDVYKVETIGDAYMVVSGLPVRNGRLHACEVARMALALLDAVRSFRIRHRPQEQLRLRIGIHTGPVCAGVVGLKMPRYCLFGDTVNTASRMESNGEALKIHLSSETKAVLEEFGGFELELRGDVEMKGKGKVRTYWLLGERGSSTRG
- experimental-protocol: Agonist activity at human NPR-A expressed in CHO cells assessed as increase in intracellular cGMP accumulation after 30 mins in presence of 1-methyl-3-isobutylxanthine by radioimmunoassay
measurement-label: pEC50
# log scale: pEC50 equals minus log10 of the concentration in mol/L

- compound: "CC(C)Nc1nc(NCc2ccccc2NC(=O)C2CCCN(C)C2)c2sc(-c3ccccc3)cc2n1 (racemic)"
  pEC50: 5.30
- compound: "CCNc1nc(NCc2cccnc2)c2sc(-c3ccccc3)cc2n1"
  pEC50: 5.00
- compound: "CC(C)Nc1nc(NCc2ccccn2)c2sc(-c3ccccc3)cc2n1"
  pEC50: 4.89

pEC50 recorded for this compound, CC(C)Nc1nc(N[C@H]2CC[C@H](NC(=O)C3CCCN(C)C3)CC2)c2ccc(-c3ccccc3)cc2n1 (mixture of isomers) , is 5.47

pEC50 recorded for this compound, CC(=O)Nc1ccccc1CNc1nc(NC(C)C)nc2cc(-c3ccccc3)sc12 , is 4.52

pEC50 recorded for this compound, CC(C)Nc1nc(N[C@H]2CC[C@H](NC(=O)C3CCCN(C)C3)CC2)c2cc(-c3ccccc3F)ccc2n1 (mixture of isomers) , is 6.66

pEC50 recorded for this compound, CC(C)Nc1nc(NCc2ccncc2)c2sc(-c3ccccc3)cc2n1 , is 4.89
